Where do the numbers come from? From patent US8063221B2.

A collection of molecules and their measured pIC50
tested_target: recombinant full-length human GSK3β (Homo sapiens, UniProt P49841)
Construct: recombinant full-length human GSK3β (Upstate); purchased Upstate
Sequence (P49841 whole entry): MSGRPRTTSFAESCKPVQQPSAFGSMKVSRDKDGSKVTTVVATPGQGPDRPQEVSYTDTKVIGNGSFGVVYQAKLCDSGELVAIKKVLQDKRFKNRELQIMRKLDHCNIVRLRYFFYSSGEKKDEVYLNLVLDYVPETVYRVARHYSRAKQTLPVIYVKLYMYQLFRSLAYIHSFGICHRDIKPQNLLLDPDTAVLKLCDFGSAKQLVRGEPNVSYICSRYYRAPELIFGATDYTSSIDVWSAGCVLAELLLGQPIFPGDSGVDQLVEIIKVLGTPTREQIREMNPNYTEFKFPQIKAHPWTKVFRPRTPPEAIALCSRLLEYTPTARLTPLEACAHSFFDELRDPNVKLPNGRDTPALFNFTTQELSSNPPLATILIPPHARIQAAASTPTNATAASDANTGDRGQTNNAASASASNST
assay_summary: Luciferase-coupled cell-free GSK3β kinase assay
Format: biochemical
recorded_conditions: Table 2
pIC50: −log10 of the molar value.

Sample answers from the record:
molecule="CCOC(=O)CCNc1c(F)c(N)c2c(=O)c(C(=O)O)cn(C3CC3)c2c1OC [Example 122]" experimental_readout=pIC50 result="6.00 to 6.30"
molecule="C[C@H]1COc2c(NCCCc3ccccc3)c(F)c(N)c3c(=O)c(C(N)=O)cn1c23 [Example 106]" experimental_readout=pIC50 result="> 7.00"
molecule="C[C@H]1COc2c(NCCCc3ccccc3)c(F)c(N)c3c(=O)c(C(=O)O)cn1c23 [compound 29]" experimental_readout=pIC50 result="> 7.00"

Task item: Quick one: pIC50 for COc1c(NCCNc2ccccn2)c(F)c(N)c2c(=O)c(C(=O)O)c(C)n(C3CC3)c12 [Example 123] ?
Reply: > 7.00

Task item: Try this molecule too: CC(C)[C@@H]1COc2c(NCCNc3ccccn3)c(F)c(N)c3c(=O)c(C(=O)O)cn1c23 [compound 62]
Reply: > 7.00

Task item: Try this molecule too: C[C@H]1COc2c(NCCOc3ccc(-c4ccccc4)cc3)c(F)c(N)c3c(=O)c(C(=O)O)cn1c23 [Example 96]
Reply: 6.00 to 6.30

Task item: Try this molecule too: CC(CCc1ccc(Cl)cc1)Nc1c(F)c(N)c2c(=O)c(C(=O)O)cn3c2c1OC[C@@H]3C (stereo partly shown) [compound 71]
Reply: > 7.00

Task item: Try this molecule too: Nc1c(F)c(NCCNc2ccccn2)cc2c1c(=O)c(C(=O)O)cn2C1CC1 [Example 133]
Reply: > 7.00

Task item: Try this molecule too: CCOC(=O)CCNc1c(F)c(N)c2c(=O)ccn(C3CC3)c2c1OC [Example 125]
Reply: 6.30 to 7.00

Task item: Try this molecule too: CC(C)c1ccc(OCCNc2c(F)c(N)c3c(=O)c(C(=O)O)cn4c3c2OC[C@@H]4C)cc1 [compound 78]
Reply: 6.30 to 7.00

Task item: Try this molecule too: NC1=C2C(=O)C(C(=O)O)=CN3CCCCOC(C(NCCNc4ccccn4)=C1F)C23 (stereo not shown) [Example 140]
Reply: 6.00 to 6.30

Task item: Try this molecule too: C[C@H]1COc2c(NCCS(=O)(=O)N3CCCCC3)c(F)c(N)c3c(=O)c(C(=O)O)cn1c23 [Example 112]
Reply: > 7.00

Task item: Try this molecule too: CC(C)[C@@H]1COc2c(NCCCc3ccccc3)c(F)c(N)c3c(=O)c(C(=O)O)cn1c23 [compound 64]
Reply: > 7.00

Task item: Try this molecule too: CC(C)[C@@H]1COc2c(NCCCn3cnc4ccccc43)c(F)c(N)c3c(=O)c(C(=O)O)cn1c23 [compound 65]
Reply: > 7.00

Task item: Try this molecule too: Nc1c(F)c(NCCNc2ccccn2)c2c3c1c(=O)c(C(=O)O)cn3[C@@H](CF)CO2 [Example 134]
Reply: > 7.00

Task item: Try this molecule too: COc1ccc(C(CCNc2c(F)c(N)c3c(=O)c(C(=O)O)cn4c3c2OC[C@@H]4C)c2ccc(F)cc2)cc1 (stereo partly shown) [compound 81]
Reply: > 7.00

Task item: Try this molecule too: C[C@H]1COc2c(NCCOc3ccc(Cl)cc3)c(F)c(N)c3c(=O)c(C(=O)O)cn1c23 [compound 83]
Reply: > 7.00

Task item: Try this molecule too: Nc1c(F)c(NCCNc2ccccn2)cc2c1c(=O)c(C(=O)O)cn2CCc1ccccc1 [Example 119]
Reply: > 7.00
